- subject-of-test: purified ovine COX-1 (Ovis aries)
- Sequence (P05979 25-600): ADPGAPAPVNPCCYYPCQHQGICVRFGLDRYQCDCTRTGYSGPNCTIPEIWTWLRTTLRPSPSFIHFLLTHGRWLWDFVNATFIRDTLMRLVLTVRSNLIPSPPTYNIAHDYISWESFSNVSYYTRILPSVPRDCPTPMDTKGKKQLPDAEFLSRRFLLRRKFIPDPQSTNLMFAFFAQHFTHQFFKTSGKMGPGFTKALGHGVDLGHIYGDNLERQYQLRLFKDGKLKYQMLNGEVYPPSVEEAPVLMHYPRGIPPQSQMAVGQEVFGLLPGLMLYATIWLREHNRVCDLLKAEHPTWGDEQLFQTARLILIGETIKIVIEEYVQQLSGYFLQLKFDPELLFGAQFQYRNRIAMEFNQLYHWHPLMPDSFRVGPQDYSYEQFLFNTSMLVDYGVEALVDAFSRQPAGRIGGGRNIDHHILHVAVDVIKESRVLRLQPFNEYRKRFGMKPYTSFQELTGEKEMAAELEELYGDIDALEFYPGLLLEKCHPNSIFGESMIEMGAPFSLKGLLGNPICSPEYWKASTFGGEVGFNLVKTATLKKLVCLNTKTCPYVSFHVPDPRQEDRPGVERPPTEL
metric-name: IC50 (µM)
Hi! Could you send only the number? It should be in µM, unit omitted.

Give IC50 for Cc1ccc(-c2cc(CCF)nn2-c2ccc(S(C)(=O)=O)cc2)cc1 38.5

###

Reported chromatographic logD values for a set of molecules
- method: log D7.4 by HPLC method
- Format: physicochemical
- experimental-conditions: HPLC retention on ODP-50 4B column (Shodex Asahipak); pH 7.4, HPLC-based method
Answer field: number only, no words.

Past entries and their recorded results:
[2H]C([2H])([18F])c1cc(-c2ccc(C)cc2)n(-c2ccc(S(C)(=O)=O)cc2)n1 [[D2,^18F]5a]; 2.72
Cc1ccc(-c2cc(CC[18F])nn2-c2ccc(S(C)(=O)=O)cc2)cc1 [[^18F]5b]; 2.65

// next item, chromatographic logD requested
Supply measured chromatographic logD of Cc1ccc(-c2cc(C[18F])nn2-c2ccc(S(C)(=O)=O)cc2)cc1 [[^18F]5a] in your reply. 2.72

###

Form field: half-life (one value per entry).
- method: Metabolic stability in vivo: blood clearance, blood components, radiometabolites
- Set-up: species or system male Wistar rats
- experimental-conditions: male, Wistar, rat, arterial blood, iv, 70 MBq, rats, i.v., arterial blood samples; read-out: t1/2 distribution (blood clearance of intact compound)
Number in min, nothing else.

Known half-life results, listed for orientation:
Cc1ccc(-c2cc(C[18F])nn2-c2ccc(S(C)(=O)=O)cc2)cc1 [[^18F]5a]; 0.6
Cc1ccc(-c2cc(CC[18F])nn2-c2ccc(S(C)(=O)=O)cc2)cc1 [[^18F]5b]; 1

Pending molecule:
Assign half-life to the following record: [2H]C([2H])([18F])c1cc(-c2ccc(C)cc2)n(-c2ccc(S(C)(=O)=O)cc2)n1 [[D2,^18F]5a] 1.3

###

- subject-of-test: recombinant human COX-2 (Homo sapiens, UniProt P35354)
- Construct: purchased Cayman Chemical, Ann Arbor, MI 700100
- Sequence (P35354 18-604): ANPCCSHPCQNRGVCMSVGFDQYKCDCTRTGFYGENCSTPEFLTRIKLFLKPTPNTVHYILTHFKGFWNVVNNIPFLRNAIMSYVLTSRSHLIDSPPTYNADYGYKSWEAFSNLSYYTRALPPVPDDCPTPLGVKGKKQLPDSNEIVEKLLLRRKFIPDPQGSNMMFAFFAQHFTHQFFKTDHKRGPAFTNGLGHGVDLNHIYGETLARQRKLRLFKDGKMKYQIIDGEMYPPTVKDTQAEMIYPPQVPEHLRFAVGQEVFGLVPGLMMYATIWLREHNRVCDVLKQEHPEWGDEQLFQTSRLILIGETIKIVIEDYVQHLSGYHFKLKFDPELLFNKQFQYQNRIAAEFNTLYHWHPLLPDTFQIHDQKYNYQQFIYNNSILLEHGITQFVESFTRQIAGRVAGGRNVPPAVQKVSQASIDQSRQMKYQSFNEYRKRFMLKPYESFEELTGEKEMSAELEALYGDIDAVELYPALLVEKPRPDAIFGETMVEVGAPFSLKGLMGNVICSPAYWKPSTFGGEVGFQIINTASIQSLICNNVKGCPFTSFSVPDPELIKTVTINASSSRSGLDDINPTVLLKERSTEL
- method: COX Fluorescent Inhibitor Screening Assay Kit, COX-2
- Assay type: biochemical
- experimental-conditions: IC50 (COX-1)/IC50 (COX-2)
metric-name: Selectivity index

CS(=O)(=O)c1ccc(-n2nc(CCF)cc2-c2ccccc2)cc1 [5c]; >20
Cc1ccc(-c2cc(CCF)nn2-c2ccc(S(C)(=O)=O)cc2)cc1 [5b]; 15
[2H]C([2H])(F)c1cc(-c2ccc(C)cc2)n(-c2ccc(S(C)(=O)=O)cc2)n1 [[D2]5a]; >103

Now take the following compound into account.
With recombinant human COX-2 (Homo sapiens, UniProt P35354) as the test system, provide measured Selectivity index for this compound: Cc1ccc(-c2cc(CF)nn2-c2ccc(S(C)(=O)=O)cc2)cc1 [5a] >196

###

# Lookup of reported half-life keyed by entry
- method: Metabolic stability in vivo: blood clearance, blood components, radiometabolites
- Design: species or system male Wistar rats
- experimental-conditions: male, Wistar, rat, arterial blood, iv, 70 MBq, rats, i.v., arterial blood samples; read-out: t1/2 elimination (blood clearance of intact compound)
Field format: number, assumed min, no unit text.

Cc1ccc(-c2cc(C[18F])nn2-c2ccc(S(C)(=O)=O)cc2)cc1 [[^18F]5a]; 19.5
[2H]C([2H])([18F])c1cc(-c2ccc(C)cc2)n(-c2ccc(S(C)(=O)=O)cc2)n1 [[D2,^18F]5a]; 17

Below: the item to evaluate.
Provide only the value of recorded half-life for Cc1ccc(-c2cc(CC[18F])nn2-c2ccc(S(C)(=O)=O)cc2)cc1 [[^18F]5b] 20.7
